# System: alkaline protease ALTP
# Format: biochemical, Alkaliphillus transvaalensis
# APPLIED CONDITIONS: pH 10
MEASURE NAME: Residual activity (%)
Give bare numbers, in %.

Some molecules with recorded Residual activity (%):
SMILES STRUCTURE: [Ba+2].[Cl-].[Cl-]
UNIT SYMBOL: %
Residual activity (%): 100
//
SMILES STRUCTURE: [Cl][Pb][Cl]
UNIT SYMBOL: %
Residual activity (%): 115
//
SMILES STRUCTURE: [Cl-].[Cl-].[Zn+2]
UNIT SYMBOL: %
Residual activity (%): 121
//
SMILES STRUCTURE: [Cl][Fe][Cl]
UNIT SYMBOL: %
Residual activity (%): 120
//
SMILES STRUCTURE: [Cl-].[Cl-].[Mg+2]
UNIT SYMBOL: %
Residual activity (%): 105
//
SMILES STRUCTURE: [Cl-].[Na+]
UNIT SYMBOL: %
Residual activity (%): 112

Go through the list and state Residual activity (%) for each entry.
1. [Cl][Cd][Cl]
2. [Cl][Ni][Cl]
3. [Cl][Cu][Cl]
4. [Cl-].[K+]
5. [Cl][Mn][Cl]

Marked response:
1. 100
2. 94
3. 109
4. 111
5. 113

Go through the list and state Residual activity (%) for each entry.
1. [Cl][Hg][Cl]
2. [Cl-].[Li+]
3. [Cl][Fe]([Cl])[Cl]
4. [Cl][Sn][Cl]
5. [Cl-].[Cl-].[Co+2]
6. [Ca+2].[Cl-].[Cl-]

Marked response:
[15, 114, 110, 108, 92, 118]

All values here come from patent US8153413B2.
